molecular target: melanocortin-1 receptor (MC-1r) on murine melanocytes (line S91 Cloudman) (murine, UniProt Q01727 1-315); assay: cell-based or functional assay
Sequence (Q01727 whole entry): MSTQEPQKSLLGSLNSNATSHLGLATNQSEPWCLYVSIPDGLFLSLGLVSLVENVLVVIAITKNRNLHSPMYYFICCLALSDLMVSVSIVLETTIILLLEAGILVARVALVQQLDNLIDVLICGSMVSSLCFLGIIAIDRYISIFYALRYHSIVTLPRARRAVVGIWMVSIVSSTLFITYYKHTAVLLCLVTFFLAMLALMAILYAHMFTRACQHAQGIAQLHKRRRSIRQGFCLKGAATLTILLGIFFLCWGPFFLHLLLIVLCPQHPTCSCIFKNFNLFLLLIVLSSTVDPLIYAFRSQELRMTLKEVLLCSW
[ ]: non-standard residue; d: D form. The star is where a group is joined. dPhe(4-NO2) = N[C@H](Cc1ccc([N+](=O)[O-])cc1)C(=O)O; 2Nal = N[C@@H](Cc1ccc2ccccc2c1)C(=O)O; Benzenesulfonyl = O=S(=O)(c1ccccc1)*; d2Thi = N[C@H](Cc1cccs1)C(=O)O; PyrProp = pyridinepropionyl; Nle = CCCC[C@H](N)C(=O)O
Quantity: cAMP production (as % of α-MSH)

Solved entries (count: 5):
# Binder, Result
data = [
    ("Ac-[Nle]AH[d2Thi]KW-NH2 (SMILES CCCC[C@H](NC(C)=O)C(=O)N[C@@H](C)C(=O)N[C@@H](Cc1c[nH]cn1)C(=O)N[C@H](Cc1cccs1)C(=O)N[C@@H](CCCCN)C(=O)N[C@@H](Cc1c[nH]c2ccccc12)C(N)=O) [Compound No. 9 in the Table, Ac-Nle-Ala-His-DThi-Lys-Trp-NH2]", "75 % of α-MSH"),
    ("PyrProp-[Nle]AH[dPhe(4-NO2)]KW-NH2 [Compound No. 10 in the Table, PyrProp-Nle-Ala-His-DpNO2Phe-Lys-Trp-NH2]", "115 % of α-MSH"),
    ("Ac-SYSMEHFRWGKPV-NH2", "100 % of α-MSH"),
    ("Benzenesulfonyl-[Nle]AH[d2Thi]KW-NH2 (SMILES CCCC[C@H](NS(=O)(=O)c1ccccc1)C(=O)N[C@@H](C)C(=O)N[C@@H](Cc1c[nH]cn1)C(=O)N[C@H](Cc1cccs1)C(=O)N[C@@H](CCCCN)C(=O)N[C@@H](Cc1c[nH]c2ccccc12)C(N)=O) [Compound No. 8 in the Table, BzlSO2-Nle-Ala-His-DThi-Lys-Trp-NH2]", "65 % of α-MSH"),
    ("Ac-[Nle]AH[2Nal]KW-NH2 (SMILES CCCC[C@H](NC(C)=O)C(=O)N[C@@H](C)C(=O)N[C@@H](Cc1c[nH]cn1)C(=O)N[C@@H](Cc1ccc2ccccc2c1)C(=O)N[C@@H](CCCCN)C(=O)N[C@@H](Cc1c[nH]c2ccccc12)C(N)=O) [Compound No. 12 in the Table, Ac-Nle-Ala-His-L2,Nap-Lys-Trp-NH2]", "50 % of α-MSH"),
]

Item under review: Benzenesulfonyl-[Nle]AH[dPhe(4-NO2)]KW-NH2 (SMILES CCCC[C@H](NS(=O)(=O)c1ccccc1)C(=O)N[C@@H](C)C(=O)N[C@@H](Cc1c[nH]cn1)C(=O)N[C@H](Cc1ccc([N+](=O)[O-])cc1)C(=O)N[C@@H](CCCCN)C(=O)N[C@@H](Cc1c[nH]c2ccccc12)C(N)=O) [Compound No. 7 in the Table, BzlSO2-Nle-Ala-His-DpNO2Phe-Lys-Trp-NH2] . Reported cAMP production (as % of α-MSH)? 100 % of α-MSH
